- TGT: H3R (Homo sapiens)
- Sequence (Q9Y5N1 whole entry): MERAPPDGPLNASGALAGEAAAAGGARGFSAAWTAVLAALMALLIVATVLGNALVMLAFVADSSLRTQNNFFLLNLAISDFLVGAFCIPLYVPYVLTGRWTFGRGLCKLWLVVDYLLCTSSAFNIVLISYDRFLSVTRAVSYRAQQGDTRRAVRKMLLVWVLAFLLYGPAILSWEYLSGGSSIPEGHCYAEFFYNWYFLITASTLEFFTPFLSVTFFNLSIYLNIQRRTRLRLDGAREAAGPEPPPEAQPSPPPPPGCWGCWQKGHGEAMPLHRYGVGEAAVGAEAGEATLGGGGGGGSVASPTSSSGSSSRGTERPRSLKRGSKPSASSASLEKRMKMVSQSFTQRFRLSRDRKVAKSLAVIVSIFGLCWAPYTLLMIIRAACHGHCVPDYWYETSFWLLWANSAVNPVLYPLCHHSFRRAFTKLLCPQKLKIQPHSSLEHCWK
- ASSAY PROCEDURE: CRE-luciferase assay, H3R inverse agonist activity (forskolin-stimulated transfected HEK-293 cells)
- MEASUREMENT PARAMETERS: 10 µM forskolin plus compound; seven concentrations; read-out: H3R inverse agonistic activity EC50
OBSERVABLE: EC50 (nM)
Give bare numbers, in nM.

Reading of EC50 for `Clc1ccc(-c2nncn2-c2ccc(OCCCN3CCCCC3)cc2)cc1` with H3R (Homo sapiens): 129

====

Exercise: for every item that follows, state its recorded melting point.
Structures can show the parent of a compound that is named as a salt.

Below is a list of compounds. For each, state its recorded melting point.
1. CN1CCN(CCCOc2ccc(-n3cnnc3)cc2)CC1.Cl [Compound 3e]
2. c1cc(-n2cnnc2)ccc1OCCCCCN1CCCCC1 (as salt: HCl) [Compound 3q]
3. CCN(CC)CCCOc1ccc(-n2cnnc2)cc1.Cl [Compound 3a]

Result block:
1. 220 to 223 °C
2. 70 to 74 °C
3. 105 to 106 °C
